Where these numbers come from: the supplement of paper PMC11061612

# Test system: J82 (Bladder Carcinoma);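 also: after 72 h of two-drug dosing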
# run_description: Bliss excess, mean over the matrix (fraction); higher = more synergy
result_type: Bliss excess
One number for each entry.

Reference set (3 entries):
{"compound": "Cc1cc2ncnn2cc1Nc1ncc2c(n1)n(C1CCOCC1)c(=O)n2C [AZD7648] + C[C@@H]1COCCN1C2=NC(=NC(=C2)C3(CC3)[S@](=N)(=O)C)C4=C5C=CNC5=NC=C4 [AZD6738] (first compound max 10 µM, 7x7, partner max 10 µM)", "Bliss excess": -0.0122}
{"compound": "CCc1c2c(nc3ccc(O)cc13)-c1cc3c(c(=O)n1C2)COC(=O)[C@]3(O)CC [SN-38] + O=C(c1cc(Cc2n[nH]c(=O)c3ccccc23)ccc1F)N1CCN(C(=O)C2CC2)CC1 [Olaparib] (first compound max 0.3 µM, 7x7, partner max 10 µM)", "Bliss excess": 0.0532}
{"compound": "NC1(C(=O)N[C@@H](CCO)c2ccc(Cl)cc2)CCN(c2ncnc3[nH]ccc23)CC1 [Capivasertib] + C[C@@H]1COCCN1C2=NC(=NC(=C2)C3(CC3)[S@](=N)(=O)C)C4=C5C=CNC5=NC=C4 [AZD6738] (first compound max 10 µM, 7x7, partner max 10 µM)", "Bliss excess": -0.065}

Each compound below has a recorded value; state its Bliss excess.
1. NC1(C(=O)N[C@@H](CCO)c2ccc(Cl)cc2)CCN(c2ncnc3[nH]ccc23)CC1 [Capivasertib] + COc1nnc2ccc(N3CCC(c4ccc(OCCN5CCN(C)C(=O)[C@H]5C)cc4)CC3)nn12 [AZD5153] (first compound max 10 µM, 7x7, partner max 1 µM)
2. COc1nnc2ccc(N3CCC(c4ccc(OCCN5CCN(C)C(=O)[C@H]5C)cc4)CC3)nn12 [AZD5153] + Cn1cnc2c(F)c(Nc3ccc(Br)cc3Cl)c(C(=O)NOCCO)cc21 [Selumetinib] (first compound max 1 µM, 7x7, partner max 10 µM)
3. CN(CCO)CC[C@H](CSc1ccccc1)Nc1ccc(S(=O)(=O)NC(=O)c2ccc(N3CCC([C@@H](O)c4ccccc4-c4ccc(Cl)cc4)CC3)cc2)cc1S(=O)(=O)C(F)(F)F [AZD4320] + Cn1cnc2c(F)c(Nc3ccc(Br)cc3Cl)c(C(=O)NOCCO)cc21 [Selumetinib] (first compound max 1 µM, 7x7, partner max 3 µM)

0.0421
0.014
-0.0144

So, CCN(CCO)CCCOc1ccc2c(Nc3cc(CC(=O)Nc4cccc(F)c4)[nH]n3)ncnc2c1 [AZD2811] + C=CCn1c(=O)c2cnc(Nc3ccc(N4CCN(C)CC4)cc3)nc2n1-c1cccc(C(C)(C)O)n1 [AZD1775] (first compound max 1 µM, partner max 1 µM) ? Its Bliss excess was 0.0001
